tested on: NIK; construct: gene MAP3K14; settings: concentration: 1 μM, replicates: in singlicate; n = 1;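 further: KINOMEscan kinase panel screen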
measuredMetric: %Inh (%)
Report the figure in % without appending any unit label.

Quick check: %Inh on NIK, item CNc1nc(-c2ccc3c(N)n[nH]c3c2)cc(N2C[C@@H](C(=O)NC3CCCCC3)OC[C@H]2C)n1 ?
5

Recall the recorded %Inh for O=C(Nc1n[nH]c2nc(-c3ccco3)c(Br)cc12)C1CCN(Cc2ccccc2)C1.O=C(O)[C@H](O)[C@@H](O)C(=O)O (centres unmarked) with NIK and state it.
0

Lab note: need %Inh for COc1ccc(Nc2nccc(NCCNC(=O)Nc3cc(C)ccc3C)n2)cc1 on NIK, anyone have it?
11

GET /values?readout=%Inh&system=NIK&item= O=C(Nc1n[nH]c2nc(-c3cccs3)c(Br)cc12)C1CC1
0

Param readout= %Inh; system= NIK; entry= Nc1cccc(-c2ccc3c(N)n[nH]c3c2)n1 ; returns value.
1

Kindly state the measured %Inh obtained for CNC(=O)c1ccc(C)c(-n2c(C)cc(OCc3ccc(F)cc3F)c(Br)c2=O)c1 with NIK.
0

State its %Inh on NIK: Cl.Cl.Cl.N#Cc1ccc(CCNc2nccc(-c3cccc(CN4CCNCC4)c3)n2)cc1
0

Short answer please: %Inh, NIK, entry COc1cccc(C2=C(Nc3cc(Cl)c(O)c(Cl)c3)C(=O)NC2=O)c1
4

Provide value of %Inh for this record tested with NIK: FC(F)(F)c1ccccc1-c1cc(-c2c[nH]nc2-c2ccccn2)ccn1
13

Param readout = %Inh; param system = NIK; param query = COc1ccc2cc(-c3nc(-c4ccccc4C(C)C)[nH]c3-c3ccncc3)ccc2c1 ; response: value
0

Record lookup: for NIK, what %Inh belongs to Cc1ccccc1Cn1ccn2c(=O)cc(N3CCOCC3)nc12 ?
0

Find the measured %Inh: item CCc1ccc(-c2ccc3c(c2)-c2n[nH]cc2S(=O)(=O)N3C)cc1 , target or system NIK.
7

Hello, I am looking for reported %Inh with NIK for COc1ccc(-c2coc3ccc(-c4nnc(C)o4)cc23)cc1 . Could you help?
0

%Inh of CNCc1ccc2nc(NC(=O)c3ccc(C(C)(C)C)cc3)cn2c1 on NIK?
28

For NIK, provide %Inh of Cc1ccc(NC(=O)Nc2ccc(Cl)c(C(F)(F)F)c2)cc1-c1ccc(C(=O)Nc2ccncc2)cc1 please.
0

Quick check: %Inh on NIK, item CS(=O)(=O)Cc1ccc(Nc2nccc(-c3c(-c4cccc(NC(=O)C5CCCCC5)c4)nn4ncccc34)n2)cc1 ?
0

Form field - read-out: %Inh; system: NIK; submitted item: COc1nccc(-c2c(-c3ccc(F)cc3)ncn2CCCN2CCOCC2)n1
18

Request body: readout %Inh, system NIK, query NS(=O)(=O)c1cccc(N/C=C2\C(=O)Nc3ccc(S(=O)(=O)Cc4c(Cl)cccc4Cl)cc32)c1 . Return the value.
2

Record lookup: for NIK, what %Inh belongs to CC(=O)c1cccc(NC(=O)NC2CCN(c3ccnc(Nc4ccc(F)cc4)n3)C2)c1 (centres unmarked) ?
0

Item: Cc1ccc(NC(=O)c2ccc(Cl)cc2)cc1-c1ccc(C(=O)Nc2ccncc2)cc1 Test system: NIK Read-out: %Inh Value: ?
3

Tell me reported %Inh for CCn1c(-c2c(N)noc2C)nc2cnccc21 , tested with NIK.
3

%Inh of CN1c2ccc(-c3ccc(C(N)=O)cc3)cc2-c2[nH]ncc2S1(=O)=O on NIK?
12

Please state recorded %Inh (tested on NIK) of COC(=O)C(Cc1ccccc1)NC(=O)NC1CCN(c2ccnc(Nc3ccc(F)cc3)n2)C1 (centres unmarked)
50

Item: CNc1cc(-c2ccc3c(N)n[nH]c3c2)nc(N)n1 Test system: NIK Read-out: %Inh Value: ?
26

Request: %Inh, test system NIK, entry O=c1cc(N2CCOCC2)nc2n(Cc3ccccc3F)ccn12
0

# returns recorded %Inh (system: NIK) for COC(=O)c1cccc(NC(=O)NC2CCN(c3ccnc(Nc4ccc(OC)cc4)n3)C2)c1 (centres unmarked)
8

Can you look up %Inh on NIK for COC(=O)C(NC(=O)NC1CCN(c2ccnc(Nc3ccc(F)cc3)n2)C1)c1ccccc1 (centres unmarked) ?
4

Requested read-out %Inh, target or system NIK, entry O=C(Nc1n[nH]c2nc(-c3cccs3)c(Br)cc12)C1CCCC1
0

Form: Entry = COc1cc2ncnc(Nc3cccc(Br)c3)c2cc1OC.Cl | System = NIK | %Inh = ____
29

What measured %Inh is associated with CC(C)c1ccc(O)cc1Nc1ccnc2ccc(C(F)(F)F)cc12 on NIK?
0

Form entry - test system: NIK; read-out: %Inh; molecule: Cn1cncc1-c1cc2c(Nc3ccc(OCc4ccccc4)cc3)ncnc2cn1
3

Recall the recorded %Inh for Cc1cnc(N)c(/C=C/c2cncc(C(=O)NCCc3ccc(Cl)cc3Cl)c2)c1.Cl with NIK and state it.
10

Record lookup: for NIK, what %Inh belongs to Fc1ccc(-c2nn3cccc(F)c3c2-c2ccncc2)cc1 ?
37

Missing value: %Inh, NIK, entry Cc1c(Cn2c(C)c(C)n3c(=O)cc(N4CCOCC4)nc23)cccc1C(F)(F)F . Fill in?
9

Short answer please: %Inh, NIK, entry COc1ccc(Nc2nccc(-c3ccc(NC(=O)c4cc5cc(F)ccc5[nH]4)cc3)n2)cc1
30

----------
tested on: p38-beta; construct: gene MAPK11; conditions: concentration: 1 μM, replicates: in singlicate; n = 1
measuredMetric: %Inh (%)
Report the figure in % without appending any unit label.

# get_value(readout='%Inh', item= Cl.Cl.Cl.N#Cc1ccc(CCNc2nccc(-c3cccc(CN4CCNCC4)c3)n2)cc1 )
0

For the molecule Nc1cccc(-c2ccc3c(N)n[nH]c3c2)n1 , what %Inh is on record?
0

Return reported %Inh; argument: COc1cccc(CNC(=O)NC2CCN(c3ccnc(Nc4ccc(F)cc4)n3)C2)c1 (stereo not drawn)
0

Return reported %Inh; argument: O=C(Nc1n[nH]c2cc(-c3ccsc3)ccc12)C1CC1
8

If you can, please state the reported %Inh value of O=C(Nc1n[nH]c2nc(-c3cccs3)c(Br)cc12)C1CCCC1 .
24

%Inh for COc1ccc(CSc2nnc(-c3ccc4c(c3)CCO4)o2)cc1 ?
0

Given the entry Cc1ccc(NC(=O)Nc2ccc(Cl)cc2)cc1-c1ccc(C(=O)Nc2ccncc2)cc1 , report its measured %Inh.
34

Dear colleague, I am looking for the recorded %Inh of the following molecule: CNC(=O)c1ccc(C)c(-n2c(C)cc(OCc3ccc(F)cc3F)c(Br)c2=O)c1
94.5

Can you look up the measured %Inh of COc1ccc(CSc2nnc(-c3ccc4ncsc4c3)o2)cc1C(F)(F)F for me?
10

Given the entry c1ccc(-c2ccnc3[nH]ccc23)cc1 , report its measured %Inh.
0

Please give the measured %Inh for this molecule: COc1ccc(Nc2nccc(N3CCC(NC(=O)C(C)c4ccc(Cl)cc4)CC3)n2)cc1 (stereo not drawn)
0

Value lookup for %Inh; key = COc1ccc(Nc2nccc(N3CCC(NC(=O)C(C)c4ccc(Cl)cc4)C3)n2)cc1 (stereo not drawn)
24

What %Inh value was documented for this molecule, NS(=O)(=O)c1cccc(N/C=C2\C(=O)Nc3ccc(S(=O)(=O)Cc4c(Cl)cccc4Cl)cc32)c1 ?
0

Looking for the measured %Inh of CS(=O)(=O)CCNCc1nc(-c2ccc3ncnc(Nc4ccc5c(cnn5Cc5ccccc5)c4)c3c2)cs1.Cl.Cl , can you help?
0

Quick one: %Inh for CN1c2ccc(-c3ccc(C(N)=O)cc3)cc2-c2[nH]ncc2S1(=O)=O ?
4

Query (molecule): COC(=O)C(NC(=O)NC1CCN(c2ccnc(Nc3ccc(F)cc3)n2)C1)c1ccccc1 (stereo not drawn) ; field requested: %Inh
0

Name the recorded %Inh for CNCc1ccc2nc(NC(=O)c3ccc(C(C)(C)C)cc3)cn2c1 .
0

For the molecule CCn1c(-c2c(N)noc2C)nc2cnccc21 , what %Inh is on record?
0

----------
Hi there, I'd appreciate the recorded %Inh for every entry that follows.
test system: MARK3; conditions: concentration: 1 μM, replicates: in singlicate; n = 1
Field format: number, assumed %, no unit text.

I would be grateful if you could share the reported %Inh for CC(=O)c1cccc(NC(=O)NC2CCN(c3ccnc(Nc4ccc(F)cc4)n3)C2)c1 (stereo not shown) .
16

// %Inh lookup, key: COc1cccc(C2=C(Nc3cc(Cl)c(O)c(Cl)c3)C(=O)NC2=O)c1
0

Returns the measured %Inh for the input compound. Input: CC(C)c1cc(-c2ccc3c(N)n[nH]c3c2)nc(N)n1
0

Quick one: %Inh of CCCCc1nn2ncccc2c1-c1ccnc(NC2CC2)n1 ?
0

----------
Give measured %Inh for each item. Keep answers brief.
system: FLT3-autoinhibited; conditions: concentration: 1 μM, replicates: in singlicate; n = 1
Your reply should be a number followed by the unit it is expressed in.

For Cc1ccc(NC(=O)Nc2ccc(Cl)c(C(F)(F)F)c2)cc1-c1ccc(C(=O)Nc2ccncc2)cc1 , what is its reported %Inh?
0%

Entry COc1ccc(Nc2nccc(-c3ccc(NC(=O)c4cc5cc(F)ccc5[nH]4)cc3)n2)cc1 : reported %Inh = ?
0%

Find the recorded %Inh belonging to CC(C)c1cc(-c2ccc3c(N)n[nH]c3c2)nc(N)n1 and report it.
0%

Quick one: %Inh for COc1ccc2cc(-c3nc(-c4ccccc4C(C)C)[nH]c3-c3ccncc3)ccc2c1 ?
4%

Please report the recorded %Inh for CS(=O)(=O)Cc1ccc(Nc2nccc(-c3c(-c4cccc(NC(=O)C5CCCCC5)c4)nn4ncccc34)n2)cc1 .
25%

Consider the compound shown here: O=c1cc(N2CCOCC2)nc2n(Cc3ccccc3F)ccn12 What is its recorded %Inh?
0%

// lookup %Inh for Fc1ccc(-c2nc3n(c2-c2ccncc2)CCS3)cc1
0%

Which %Inh reading was recorded for the compound Cc1ccccc1-c1cc(-c2c[nH]nc2-c2ccccn2)ccn1 ?
0%

Dear colleague, I am looking for the recorded %Inh of the following compound: Fc1ccc(-c2nn3cccc(F)c3c2-c2ccncc2)cc1
2%

Source listed as paper PMC5540273.
